Origin of the recorded values: PubChem BioAssay (NCI)

# System: A549/ATCC NSCLC
# EXPERIMENT DESCRIPTION: NCI-60 one-dose screen, 48 h (100 = growth as untreated, 0 = no growth, -100 = all killed)
# REPORTED CONDITIONS: 10 µM unless noted
This is part of a sample that, as a whole, favours compounds with a hit. Of some 83,000 tested, about 20% had one in any assay.
Below, each entry is listed alongside its reported growth.

COMPOUND | growth, %
N/C(=N\N=C\c1ccc([N+](=O)[O-])cc1)c1c(N)nc(=S)[nH]c1-c1ccc(Cl)cc1Cl | 101
Cc1cc(C)cc(C(=O)Nc2cccc(-c3cn(-c4ccc(S(N)(=O)=O)cc4)nn3)c2)c1 | 62.2
CC(=O)Nc1ccc(-n2cnc3cc(-c4ccc(O)cc4)ccc32)cc1C(F)(F)F | 19.4
O=C(COc1ccc(NC(=O)Nc2ccc(Cl)c(Cl)c2)cc1)N=Nc1c(O)[nH]c2ccc(Br)cc12 | -45.8
COc1c(F)ccc(C(=O)Nc2ccc3nc(NC(=O)C4CCCN(S(=O)(=O)c5ccc(C(F)(F)F)cc5)C4)sc3c2)c1F (configuration not stated) | 75.3
CC(=O)NNc1ccc2nnc(-c3ccccc3)n2n1 | 102
COc1cc2oc(-c3cccc(C(=O)Nc4cccc([N+](=O)[O-])c4)c3)cc(=O)c2c(OC)c1OC | 23
CNC(=O)c1cccc(NC(=O)c2ccc3c(c2)nnn3/C(C#N)=C/c2ccccn2)c1 | 83.2
CC(C)c1ccc2c(N)c(C(=O)Nc3cccc(C(F)(F)F)c3)sc2n1 | 78.8
Cc1ccc(NC(=O)[C@]23CCC(C)(C)CC2C2=CCC4[C@@]5(C)C[C@@H](O)[C@H](O)[C@@](C)(CO)C5CC[C@@]4(C)[C@]2(C)CC3)cc1 (some centres not stated) | 20.5
CN(C)CCCNC(=O)c1cc(NC(=O)c2cc(NC(=O)c3ccc(C#Cc4ccccc4)cc3)cn2C)cn1C | -14.8
CCOC(=O)C1=C(N)N(c2ccccc2)C2=C(C(=O)CC(C)(C)C2)C1c1ccccc1Cl (configuration not stated) | 75.6
CCCCSc1nc(Nc2ccc(S(N)(=O)=O)cc2)c(C#N)c(-c2cc(OC)c(OC)c(OC)c2)n1 | 32.2
Clc1cccc(Cl)c1/C=C/c1cc(/C=C/c2ccc(Br)cc2)c2ccccc2n1 | 98.2
Nc1nnc(-c2c[nH]c3ncc(Br)cc23)c(-c2c[nH]c3ccc(F)cc23)n1 | 40.7
CN(C)c1ccnc(NCCCSC(c2ccccc2)(c2ccccc2)c2ccccc2)c1 | 48.4
O=C(COc1ccc(NC(=O)Nc2ccc(Cl)c(Cl)c2)cc1)N=Nc1c(O)[nH]c2ccc([N+](=O)[O-])cc12 | 62.4
